# assay comment: Cytotoxicity against human MT4 cells assessed as reduction in cell viability by CellTiter-Glo luminescence analysis
# Format: toxicity, cell-based
endpoint: CC50

CCCCCCCC(=O)O[C@@]12[C@H](OC(=O)c3ccccc3)[C@@H](C)[C@]3(O)[C@@H]4C=C(C)C(=O)[C@@]4(O)[C@H](O)C(CO)=C[C@H]3[C@@H]1C2(C)C = > 41 nM
CCCCCCCC(=O)O[C@@]12[C@H](OC(=O)c3ccccc3)[C@@H](C)[C@@]3(O)C(=C[C@](O)(CO)C[C@]4(O)C(=O)C(C)=C[C@@H]34)[C@@H]1C2(C)C = > 41 nM

Please turn your attention to the following entry.
Query: Quick one: CC50 for CCCCCCCC(=O)O[C@@]12C[C@@H](C)[C@@]3(O)[C@H]([C@@H]1C2(C)C)[C@@H](OO)C(CO)=C[C@]1(O)C(=O)C(C)=C[C@@H]31 ?
Response: > 41 nM

---

# assay comment: Selectivity index, ratio of CC50 for human MT4 cells to IC50 for antiviral activity against HIV-1 NL4-3 infected in human MT4 cells
# Type: toxicity, cell-based
# experimental parameters: read-out: Ratio CC50/IC50
endpoint: selectivity ratio

Query: Quick one: selectivity ratio for CCCCCCCC(=O)O[C@@]12[C@H](OC(=O)c3ccccc3)[C@@H](C)[C@@]3(O)[C@H]([C@@H]1C2(C)C)[C@@H](OO)C(CO)=C[C@]1(O)C(=O)C(C)=C[C@@H]31 ?
Response: < 5

---

# CC50 listing for each entry below
# assay comment: Cytotoxicity against human MT4 cells assessed as reduction in cell viability by CellTiter-Glo luminescence analysis
# Format: toxicity, cell-based

Below, 4 molecules whose answers are already recorded.
CCCCCCCC(=O)O[C@@]12[C@H](OC(=O)c3ccccc3)[C@@H](C)[C@@]3(O)[C@@H](C(=O)C(CO)=C[C@]4(O)C(=O)C(C)=C[C@@H]34)[C@@H]1C2(C)C = > 41 nM
C=C(C)[C@]12C[C@@H](COC(=O)c3ccccc3)[C@@]34OC5(O[C@@H]1[C@@H]3[C@@H]1O[C@]1(CO)[C@@H](O)[C@@]1(O)[C@H]4[C@H]([C@H](C)[C@@H]1OC(=O)c1ccccc1)[C@H](C)CCCCCC[C@H]5O)O2 = > 5 nM
CCCCCCCC(=O)O[C@@]12C[C@@H](C)[C@@]3(O)[C@@H](C(=O)C(CO)=C[C@]4(O)C(=O)C(C)=C[C@@H]34)[C@@H]1C2(C)C = > 41 nM
CCCCCCCC(=O)O[C@@]12[C@H](OC(=O)c3ccccc3)[C@@H](C)[C@@]3(O)[C@@H](C=C(CO)C[C@]4(O)C(=O)C(C)=C[C@@H]34)[C@@H]1C2(C)C = > 41 nM

Please turn your attention to the following entry.
Query: Quick one: CC50 for CCCCCCCC(=O)O[C@@]12[C@H](OC(=O)c3ccccc3)[C@@H](C)[C@@]3(O)[C@H]([C@@H]1C2(C)C)[C@@H](O)C(CO)=C[C@]1(O)C(=O)C(C)=C[C@@H]31 ?
Response: > 41 nM

Values were extracted from ChEMBL document CHEMBL5120745.
